Test: Selectivity of SERT over DAT
Mark Condition met only for Ratio Ki values smaller than 100; exact matches and larger values are Condition not met.

Fc1ccc(C(N[C@H]2C[C@H]3CC[C@@H](C2)N3CCCCc2ccccc2)c2ccc(F)cc2)cc1
Condition met
C=CCN1[C@@H]2CC[C@H]1C[C@@H](NC(c1ccc(F)cc1)c1ccc(F)cc1)C2
Condition not met
Fc1ccc(C(N[C@H]2C[C@H]3CC[C@@H](C2)N3)c2ccc(F)cc2)cc1
Condition not met
CN1[C@@H]2CC[C@H]1C[C@@H](NC(c1ccc(F)cc1)c1ccc(F)cc1)C2
Condition not met
CN1[C@@H]2CC[C@H]1C[C@@H](NC(c1ccc(Cl)c(Cl)c1)c1ccc(Cl)c(Cl)c1)C2
Condition not met
CN(C(c1ccc(F)cc1)c1ccc(F)cc1)[C@H]1C[C@H]2CC[C@@H](C1)N2C
Condition not met
CCCCN1[C@@H]2CC[C@H]1C[C@@H](NC(c1ccc(F)cc1)c1ccc(F)cc1)C2
Condition not met
CN1[C@@H]2CC[C@H]1C[C@H](NC(c1ccc(F)cc1)c1ccc(F)cc1)C2
Condition met
O=C(CCN1[C@@H]2CC[C@H]1C[C@@H](NC(c1ccc(F)cc1)c1ccc(F)cc1)C2)Nc1ccccc1
Condition not met
CN1[C@@H]2CC[C@H]1C[C@@H](NC(c1ccccc1)c1ccc(Cl)cc1)C2 (stereo not given in full)
Condition not met

----------
The compounds listed here are annotated with their Ratio Ki.
Experiment: Selectivity of Muscarinic receptor M1 over DAT
readout kind: Ratio Ki

NCCN1[C@@H]2CC[C@H]1C[C@@H](NC(c1ccc(F)cc1)c1ccc(F)cc1)C2
169
CN1[C@@H]2CC[C@H]1C[C@@H](NC(c1ccc(F)cc1)c1ccc(F)cc1)C2
0.7
Fc1ccc(C(N[C@H]2C[C@H]3CC[C@@H](C2)N3CCCCc2ccccc2)c2ccc(F)cc2)cc1
37
Fc1ccc(C(N[C@H]2C[C@H]3CC[C@@H](C2)N3)c2ccc(F)cc2)cc1
18

----------
// Sodium-dependent noradrenaline transporter (Homo sapiens) pKi records
pKi: −log10 of the molar value.
readout kind: pKi

Fc1ccc(C(N[C@H]2C[C@H]3CC[C@@H](C2)N3)c2ccc(F)cc2)cc1
6.00
CN1[C@@H]2CC[C@H]1C[C@@H](NC(c1ccc(Cl)c(Cl)c1)c1ccc(Cl)c(Cl)c1)C2
6.59
CCCCN1[C@@H]2CC[C@H]1C[C@@H](NC(c1ccc(F)cc1)c1ccc(F)cc1)C2
5.53
CN1[C@@H]2CC[C@H]1C[C@@H](NC(c1ccccc1)c1ccc(Cl)cc1)C2 (some centres undefined)
5.50
CN(C(c1ccc(F)cc1)c1ccc(F)cc1)[C@H]1C[C@H]2CC[C@@H](C1)N2C
5.08
CN1[C@@H]2CC[C@H]1C[C@@H](NC(c1ccc(Cl)cc1)c1ccc(Cl)cc1)C2
5.12
NCCN1[C@@H]2CC[C@H]1C[C@@H](NC(c1ccc(F)cc1)c1ccc(F)cc1)C2
5.45
CN1[C@@H]2CC[C@H]1C[C@@H](NC(c1ccc(F)cc1)c1ccc(F)cc1)C2
5.74
Fc1ccc(C(N[C@H]2C[C@H]3CC[C@@H](C2)N3CCCCc2ccccc2)c2ccc(F)cc2)cc1
5.79
CN1C2CCC1CC(OC(c1ccc(F)cc1)c1ccc(F)cc1)C2 (centres undefined) [DIFLUOROBENZTROPINE]
6.07
Fc1ccc(C(N[C@H]2C[C@H]3CC[C@@H](C2)N3CCc2c[nH]c3ccccc23)c2ccc(F)cc2)cc1
5.08
C=CCN1[C@@H]2CC[C@H]1C[C@@H](NC(c1ccc(F)cc1)c1ccc(F)cc1)C2
5.25
CN1[C@@H]2CC[C@H]1C[C@H](NC(c1ccc(F)cc1)c1ccc(F)cc1)C2
3.82
O=C(CCN1[C@@H]2CC[C@H]1C[C@@H](NC(c1ccc(F)cc1)c1ccc(F)cc1)C2)Nc1ccccc1
5.61
